In this section we review reported melting point values for a set of compounds.

| Compound | melting point |
| --- | --- |
| CC1c2ccccc2-c2ccccc2N1S(=O)(=O)c1ccc(O)c(CO)c1 (stereo not drawn) [Example 26] | 182 to 184 °C |
| CCCCC1c2ccccc2-c2ccccc2N1S(=O)(=O)c1ccc(O)cc1 (stereo not drawn) [Example 7] | 149 to 151 °C |
| CCC1c2ccc(C)cc2-c2ccccc2N1S(=O)(=O)c1ccc(O)cc1 (stereo not drawn) [Example 43] | 167 to 170 °C |
| CCOC(=O)c1cc(S(=O)(=O)N2c3ccccc3-c3ccccc3C2C)ccc1OCC (stereo not drawn) [Example 25] | 113 to 115 °C |
| CC1c2ccccc2-c2ccc(F)cc2N1S(=O)(=O)c1ccc(O)cc1 (stereo not drawn) [Example 105] | 162 to 165 °C |
| C[C@@H]1c2cc(F)ccc2-c2ccccc2N1S(=O)(=O)c1ccc(O)cc1 [Example 34] | 193 °C |
| C[C@H]1c2cc(F)ccc2-c2ccccc2N1S(=O)(=O)c1ccc(O)cc1 [Example 33] | 193 °C |
| CC1c2ccccc2-c2ccc(Cl)cc2N1S(=O)(=O)c1cccc(O)c1 (stereo not drawn) [Example 118] | 215 °C |
| CCC1c2c(C)cccc2-c2ccccc2N1S(=O)(=O)c1ccc(O)cc1 (stereo not drawn) [Example 42] | 167 to 169 °C |

----------
# Tested on: ER/NF-κB
# Method summary: ER/NF-κB luciferase reporter in Ad5-wt-ERα infected HAECT-1 cells
# Type: cell-based, human
# Protocol conditions: Homo sapiens, HAECT1, IL-1β, read-out: ER/NFκB Efficacy (%)*
# Experimental: After four hours, cells were washed with EBM-BSA and incubated overnight in the same medium. […] ERα infected HAECT-1 cells or control cells were thawed, diluted 42× in warm EBM-BSA, plated into 96-well plates at 0.1 mL/well and incubated for 4 hours at 34° C. […] Luciferase was determined on a Wallac Victor^2 Luminometer (Gaithersburg, Md.) using 10 μL of lysate and mixing with 100 μL of Promega Luciferase Assay reagent. […]
Property name: Emax (%)

| Molecule | Property name | Measured number |
| --- | --- | --- |
| CC1c2cc(F)ccc2-c2cc(Br)ccc2N1S(=O)(=O)c1ccc(O)cc1 (centres unmarked) | Emax | 92 |
| CCC1c2ccccc2-c2ccccc2N1S(=O)(=O)c1ccc(O)cc1 (centres unmarked) | Emax | 76 |
| CC(C)(C)C1c2ccccc2-c2ccccc2N1S(=O)(=O)c1ccc(O)cc1 (centres unmarked) | Emax | 105 |
| CCC1c2ccccc2-c2cc(-c3ccccc3Cl)ccc2N1S(=O)(=O)c1ccc(O)cc1 (centres unmarked) | Emax | 96 |
| CC(C)(C)[C@H]1c2ccccc2-c2ccccc2N1S(=O)(=O)c1ccc(O)cc1 | Emax | 89 |

----------
# System: ER/NF-κB
# Method summary: ER/NF-κB luciferase reporter in Ad5-wt-ERα infected HAECT-1 cells
# Type: cell-based, human
# Protocol conditions: Homo sapiens, HAECT1, IL-1β, read-out: ER/NFκB IC50
Measured IC50 values are reported for all entries that follow.

| Compound | Relation symbol | IC50, µM |
| --- | --- | --- |
| C[C@@H]1c2cc(F)ccc2-c2ccccc2N1S(=O)(=O)c1ccc(O)cc1 | = | 2.85 |
| CCCCC1c2ccccc2-c2ccccc2N1S(=O)(=O)c1ccc(O)cc1 (stereo not shown) | = | 0.47 |
| CCC1c2ccc(C)cc2-c2ccccc2N1S(=O)(=O)c1ccc(O)cc1 (stereo not shown) | > | 10 |
| CCC1c2cc(F)ccc2-c2cc(C)ccc2N1S(=O)(=O)c1ccc(O)cc1 (stereo not shown) | = | 0.056 |

----------
# System: ER/NF-κB
# Method summary: ER/NF-κB luciferase reporter in Ad5-wt-ERα infected HAECT-1 cells
# Assay type: cell-based, human
# Protocol conditions: Homo sapiens, HAECT1, IL-1β, read-out: ER/NFκB IC50
pIC50: −log10 of the molar value.
Measured pIC50, listed per entry.
Property name: pIC50

| Molecule | Relation symbol | Measured number |
| --- | --- | --- |
| C[C@H]1c2ccccc2-c2ccccc2N1S(=O)(=O)c1ccc(O)cc1 (single isomer, unassigned) [Example 2] | = | 7.40 |
| CC[C@@H](C)[C@H]1c2ccccc2-c2ccccc2N1S(=O)(=O)c1ccc(O)cc1 (relative stereo) [Example 22] | = | 6.79 |
| CC1c2cc(F)ccc2-c2ccccc2N1S(=O)(=O)c1ccc(O)cc1 (stereo not drawn) [Example 32] | = | 7.02 |
| CCC1c2ccccc2-c2cc(-c3cccc(O)c3)ccc2N1S(=O)(=O)c1ccc(O)c(C)c1 (stereo not drawn) [Example 84] | = | 6.35 |
| CC1c2cc(F)ccc2-c2cc(Br)ccc2N1S(=O)(=O)c1ccc(O)cc1 (stereo not drawn) [Example 45] | = | 6.45 |
| CC1c2c(O)cccc2-c2ccccc2N1S(=O)(=O)c1ccc(O)cc1 (stereo not drawn) [Example 39] | < | 5.00 |
| CC1c2cc(F)ccc2-c2ccccc2N1S(=O)(=O)c1ccc(O)c(F)c1 (stereo not drawn) [Example 49] | < | 5.00 |
| C[C@H]1c2cc(F)ccc2-c2ccccc2N1S(=O)(=O)c1ccc(O)cc1 [Example 33] | = | 7.48 |
| CC1c2cc(F)ccc2-c2ccccc2N1S(=O)(=O)c1cccc(O)c1 (stereo not drawn) [Example 48] | = | 6.28 |
| CC(C)(C)[C@H]1c2ccccc2-c2ccccc2N1S(=O)(=O)c1ccc(O)cc1 [Example 16] | = | 5.64 |
| CCc1ccc(-c2ccc3c(c2)-c2ccccc2C(CC)N3S(=O)(=O)c2ccc(O)cc2)cc1 (stereo not drawn) [Example 75] | = | 5.41 |

----------
# Tested on: ER/NF-κB
# Method summary: ER/NF-κB luciferase reporter in Ad5-wt-ERα infected HAECT-1 cells
# Type: cell-based, human
# Protocol conditions: Homo sapiens, HAECT1, IL-1β, read-out: ER/NFκB Efficacy (%)*

| Compound | Emax / % |
| --- | --- |
| O=S(=O)(c1ccc(O)cc1)N1c2ccc(Br)cc2-c2ccccc2C1c1ccccc1 (stereo not shown) | 93 |
| CC(C)(C)[C@@H]1c2ccccc2-c2ccccc2N1S(=O)(=O)c1ccc(O)cc1 | 99 |
| CCC1c2ccccc2-c2cc(Br)ccc2N1S(=O)(=O)c1ccc(O)cc1 (stereo not shown) | 80 |
| CCC1c2ccccc2-c2cc(-c3cc4ccccc4s3)ccc2N1S(=O)(=O)c1ccc(O)c(C)c1 (stereo not shown) | 108 |
| CC[C@@H](C)[C@H]1c2ccccc2-c2ccccc2N1S(=O)(=O)c1ccc(O)cc1 (relative stereo) | 96 |
| O=S(=O)(c1ccc(O)cc1)N1c2ccccc2-c2ccccc2C1c1ccccc1 (stereo not shown) | 89 |
| CCC1c2ccccc2-c2cc(-c3ccsc3)ccc2N1S(=O)(=O)c1ccc(O)c(C)c1 (stereo not shown) | 86 |
| CC1c2ccccc2-c2cc(Br)ccc2N1S(=O)(=O)c1ccc(O)cc1 (stereo not shown) | 101 |
| CC1c2cc(F)ccc2-c2ccccc2N1S(=O)(=O)c1ccc(O)cc1 (stereo not shown) | 96 |
| CCC(=O)Oc1ccc(S(=O)(=O)N2c3ccccc3-c3ccc(F)cc3C2CC)cc1 (stereo not shown) | 87 |

----------
# Test system: IL-6
# Method summary: IL-6 test procedure (IL-6 ELISA of media) in Ad5-wt-ERα infected HAECT-1 cells
# Type: cell-based, human
# Protocol conditions: Homo sapiens, HAECT1, IL-1β, read-out: Interleukin-6 Efficacy (%)
Binarize Emax at 80%; below is Criterion met, at or above is Criterion not met.

| Compound | Class assignment |
| --- | --- |
| C[C@@H]1c2cc(F)ccc2-c2ccc(F)cc2N1S(=O)(=O)c1ccc(O)cc1O (single isomer, unassigned) | Criterion met |
| CC1c2ccccc2-c2cc(F)ccc2N1S(=O)(=O)c1ccc(O)cc1 (stereo not drawn) | Criterion not met |
| CC1c2ccccc2-c2ccc(F)cc2N1S(=O)(=O)c1cccc(O)c1 (stereo not drawn) | Criterion not met |
| C[C@H]1c2cc(F)ccc2-c2ccccc2N1S(=O)(=O)c1ccc(OS(N)(=O)=O)cc1 | Criterion not met |
| CC1c2ccccc2-c2cc(F)ccc2N1S(=O)(=O)c1cccc(O)c1 (stereo not drawn) | Criterion not met |

----------
In this section, each of the molecules is paired with its reported melting point.

| Molecule | melting point |
| --- | --- |
| CC1c2ccccc2-c2cc(F)ccc2N1S(=O)(=O)c1ccc(O)cc1 (centres unmarked) | 216 to 218 °C |
| C[C@@H]1c2ccccc2-c2ccccc2N1S(=O)(=O)c1ccc(O)cc1 (single isomer, unassigned) | 181 to 183 °C |
| CCCCC1c2ccccc2-c2cc(Br)ccc2N1S(=O)(=O)c1ccc(O)cc1 (centres unmarked) | 178 to 180 °C |
| CC1c2ccccc2-c2ccccc2N1S(=O)(=O)c1ccc(O)c(C(F)(F)F)c1 (centres unmarked) | 213 to 215 °C |
| CCC1c2cc(F)ccc2-c2cc(-c3cccnc3)ccc2N1S(=O)(=O)c1ccc(O)cc1 (centres unmarked) | 195 to 200 °C |
| CC1c2cc(F)ccc2-c2ccccc2N1S(=O)(=O)c1cccc(O)c1 (centres unmarked) | 161 °C |
| Cc1ccc2c(c1)C(C)N(S(=O)(=O)c1ccc(O)cc1)c1ccccc1-2 (centres unmarked) | 111 to 113 °C |
| CC1c2ccccc2-c2ccc(Cl)cc2N1S(=O)(=O)c1ccc(O)cc1 (centres unmarked) | 204 °C |
| C[C@H]1c2ccccc2-c2ccccc2N1S(=O)(=O)c1ccc(O)cc1 (single isomer, unassigned) | 176 to 178 °C |
| CCC1c2ccccc2-c2cc(-c3cccc(O)c3)ccc2N1S(=O)(=O)c1ccc(O)cc1 (centres unmarked) | 105 °C |
| CC1c2cc(F)ccc2-c2ccccc2N1S(=O)(=O)c1ccc(O)c(F)c1 (centres unmarked) | 191 °C |
| C[C@@H]1c2ccccc2-c2ccc(F)cc2N1S(=O)(=O)c1ccc(O)cc1O | 150 to 152 °C |
| CCC1c2ccccc2-c2cc(-c3cccc4c3oc3ccccc34)ccc2N1S(=O)(=O)c1ccc(O)cc1 (centres unmarked) | 218 to 220 °C |
| O=S(=O)(c1ccc(O)cc1)N1c2ccccc2-c2ccccc2[C@H]1c1ccccc1 (single isomer, unassigned) | 208 to 210 °C |
| O=S(=O)(c1ccc(O)cc1)N1c2ccccc2-c2ccccc2[C@@H]1c1ccccc1 (single isomer, unassigned) | 210 to 212 °C |
| CC1c2cc(F)ccc2-c2ccccc2N1S(=O)(=O)c1ccc(O)cc1 (centres unmarked) | 188 °C |
| C[C@@H]1c2ccccc2-c2ccc(Cl)cc2N1S(=O)(=O)c1ccc(O)cc1O | 178.2 to 182 °C |
| C[C@H]1c2ccccc2-c2ccc(F)cc2N1S(=O)(=O)c1ccc(O)cc1O | 151 to 153 °C |
| Cc1cc(S(=O)(=O)N2c3ccccc3-c3ccccc3C2C)ccc1O (centres unmarked) | 186 to 188 °C |
| CC1c2ccccc2-c2cc(Br)ccc2N1S(=O)(=O)c1ccc(O)cc1 (centres unmarked) | 201 to 203 °C |
| CCC1c2cc(F)ccc2-c2cc(-c3ccccc3)ccc2N1S(=O)(=O)c1ccc(O)cc1 (centres unmarked) | 207 °C |
| Cc1cc(S(=O)(=O)N2c3ccccc3-c3ccc(F)cc3C2C)ccc1O (centres unmarked) | 196 °C |
| Cc1cc(S(=O)(=O)N2c3ccc(Br)cc3-c3ccccc3C2C)ccc1O (centres unmarked) | 193 to 195 °C |
| CC1c2ccccc2-c2ccccc2N1S(=O)(=O)c1ccc(O)c(C(=O)O)c1 (centres unmarked) | 225 to 230 °C |
| CCC1c2cc(F)ccc2-c2ccccc2N1S(=O)(=O)c1ccc(O)c(Cl)c1 (centres unmarked) | 174 to 177 °C |
| CC(C)(C)C1c2ccccc2-c2cc(Br)ccc2N1S(=O)(=O)c1ccc(O)cc1 (centres unmarked) | 245 to 247 °C |
| CC1c2ccccc2-c2ccccc2N1S(=O)(=O)c1ccc(O)cc1 (centres unmarked) | 196 to 198 °C |
| CC1c2ccccc2-c2cc(Br)ccc2N1S(=O)(=O)c1ccc(O)c(F)c1 (centres unmarked) | 203 to 206 °C |
| CC1c2ccccc2-c2ccc(F)cc2N1S(=O)(=O)c1cccc(O)c1 (centres unmarked) | 164 to 167 °C |
| CC(C)(C)[C@@H]1c2ccccc2-c2ccccc2N1S(=O)(=O)c1ccc(O)cc1 | 187 to 189 °C |
| O=S(=O)(c1ccc(O)cc1)N1c2ccccc2-c2ccccc2C1c1ccccc1 (centres unmarked) | 217 to 220 °C |
| CCC1c2cc(F)ccc2-c2ccccc2N1S(=O)(=O)c1ccc(O)c(C)c1 (centres unmarked) | 181 °C |
